Origin of values: the supplement of paper PMC9170038

// reported apparent KD of K4 kissing-loop reporter for each item listed
# System: K4 kissing-loop RNA reporter;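 further: bound reporter read as fluorescence of individual clusters on recovered sequencing chips by microscopy, with normalized cluster intensities fitted with a binding model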
# Assay procedure: apparent KD of K4 kissing-loop reporter; higher = weaker reporter binding
# Settings: Eterna round: R107; input ligand: arginine 13.2 mM
Please respond with the number in nM and leave the unit unwritten.

Reference set, count: 5
{"Residue codes": "AGUGAUGUUGUGUUAUGCUAGGGAAGUGAUCGAGGACCGGUACGGCCGCCACUCGAGUGAUGAGUGAGUGAUGUUUGUUUAGGGA [sdsmullin]", "apparent KD of K4 kissing-loop reporter / nM": 480}
{"Residue codes": "CCUUCUCUUGAUAGUGAUGUUAUCAAGGGCAAGGAUAUCAUCUCAAUGAGAAGGUGUCCUUGAUAACAUGGAGGUCUGAAACAGA [Omei KL FMN A Exc C v4]", "apparent KD of K4 kissing-loop reporter / nM": 165}
{"Residue codes": "AAGAGCUAGGCGGCCGCCACUAGUUGUGAACACGUACAAGCCAGUGAUGUUGGUAUGAUGGACGGUAGGACCGGGCCUAGCUGAA [Exclusion - Tryptophan B (Freestyle 14)]", "apparent KD of K4 kissing-loop reporter / nM": 271}
{"Residue codes": "GCGGGCCAGACGGCCGCCACUCCGGGCAGUGAUGUUGCGAAACUUCUACUAGAGUGAUGUUCUACGAGGACCGGGUCGGAACGCG [Exclusion Tryptophan B Gf 13]", "apparent KD of K4 kissing-loop reporter / nM": 703}
{"Residue codes": "AGGUUUUGAUUAGGAUAUGCACUGAGGAGGAGAAUAUAGUGAUGUUAUAUAAGAGGAAGUAGUAGAGUAGAAGGGAUUGAGGUUU [SSFMNB.S]", "apparent KD of K4 kissing-loop reporter / nM": 167}

Let us move to another entry and its apparent KD of K4 kissing-loop reporter.
Tell me the measured apparent KD of K4 kissing-loop reporter of AAAGUGUCAGCACGAGUGAUGUUCGACGAUACCAGCCUCGAUAGAGGCCCUUGGCAGCGUAAACCAAGGGCUGGCACAAAAUAAA [#SwitchBubble 6 #K4Early] , please. 975

----------
# Test system: MS2 coat protein
# Assay procedure: apparent KD of MS2 coat protein; designed switch direction (-1 OFF switch, 1 ON switch): -1; higher = weaker reporter binding
# Settings: Eterna round: R95; input ligand: microRNA oligo, concentration not stated
Readout: apparent KD of MS2 coat protein (µM)
Please respond with the number in µM and leave the unit unwritten.

Reference set, count: 6
{"Residue codes": "GAUACACAUGAGGAUCACCCAUGUGAGGAUAUGCGUACGUUGUCCGUAGGCGACGUGCGCAGAAGGCGCAAGGU [Mat - Mod of JL D96] (puzzle: Exclusion 1)", "Readout": "apparent KD of MS2 coat protein", "Unit abbreviation": "µM", "Recorded result": 0.055}
{"Residue codes": "CAGUACUGAGGAUAUACAUGAGGAUCACCCAUGUGUUCGAGCUAGGAAACUAGCAAAAGUAGAAGGCAGUACUG [salish99_ex3_r3_080] (puzzle: Exclusion 3)", "Readout": "apparent KD of MS2 coat protein", "Unit abbreviation": "µM", "Recorded result": 0.0154}
{"Residue codes": "CAGUACUGAGGAUAUACAUGAGGAUCACCCAUGUGUUCCAGCUAGGAAACUAGCAAAAGUAGAAGGUAGUACUG [salish99_ex3_r3_086 (!)] (puzzle: Exclusion 3)", "Readout": "apparent KD of MS2 coat protein", "Unit abbreviation": "µM", "Recorded result": 0.0147}
{"Residue codes": "CUAGUCCGAGGAUAUAUUAUGUGAAACAUGAGGAUCACCCAUGUUAUAUGAUGGAUGAAAAUAGAAGGCGGACUAG [Mat - Exclusion 5 - JL mod - D61] (puzzle: Exclusion 5)", "Readout": "apparent KD of MS2 coat protein", "Unit abbreviation": "µM", "Recorded result": 0.0728}
{"Residue codes": "UUUUUCAUCUAUGGGAGUGACAUGAGGAUCACCCAUGUGUGUCUUGUUUUUUGUUCGUCUAAGACUUUCUGAUCAGU [JR_SV3TOV1_Sub032] (puzzle: Sensor v3, turn-off variant 1)", "Readout": "apparent KD of MS2 coat protein", "Unit abbreviation": "µM", "Recorded result": 0.313}
{"Residue codes": "AAGUACCGUCACGAUAGUGAUGGUACAACAAGUAUGUGAACAUGAGGAUCACCCAUGUCCUCUUUUGCUCGUCUUAU [Sensor 3 - 89] (puzzle: Sensor v3, turn-off variant 2)", "Readout": "apparent KD of MS2 coat protein", "Unit abbreviation": "µM", "Recorded result": 0.0223}

Let us move to another entry and its apparent KD of MS2 coat protein.
Please provide the recorded apparent KD of MS2 coat protein for AAUGCAAGCAAGAUCCUAAACAUGAGGAUCACCCAUGUGCUCGUCUUAUAAAGUACUAUCACGAAAGUGAUAGUACA [Sensor 3, v1 - 64] (puzzle: Sensor v3, turn-off variant 1) , tested on MS2 coat protein. 0.132
